Tested on: PC-3 [JPC-3]
Assay: relative viability (nuclei count vs DMSO), 5 days (fraction); higher = more cells survive
Conditions: first compound 0.005 µM
measurement type: relative viability

>>> obs_value("COc1cc2nccc(Oc3ccc(NC(=O)Nc4cc(C)on4)c(Cl)c3)c2cc1OC [Tivozanib] + COc1cccc2cc(-c3nc([C@H]4CC[C@H](C(=O)O)CC4)n4ncnc(N)c34)[nH]c12 [OSI-027] (partner 0.5 µM)")
0.665
>>> obs_value("Nc1ccn([C@@H]2O[C@H](CO)[C@@H](O)[C@@H]2O)c(=O)n1 [Cytarabine] + O=C(CCCCCCC(=O)Nc1ccccc1)NO [Vorinostat] (partner 1 µM)")
0.78
>>> obs_value("COc1cc2nccc(Oc3ccc(NC(=O)Nc4cc(C)on4)c(Cl)c3)c2cc1OC [Tivozanib] + CCNC(=O)c1noc(-c2cc(C(C)C)c(O)cc2O)c1-c1ccc(CN2CCOCC2)cc1 [Luminespib] (partner 0.01 µM)")
0.744
>>> obs_value("COc1cc2nccc(Oc3ccc(NC(=O)Nc4cc(C)on4)c(Cl)c3)c2cc1OC [Tivozanib] + CC(C)C[C@H](NC(=O)[C@H](Cc1ccccc1)NC(=O)c1cnccn1)B(O)O [Bortezomib] (partner 0.002 µM)")
0.82
>>> obs_value("Nc1ccn([C@@H]2O[C@H](CO)[C@@H](O)[C@@H]2O)c(=O)n1 [Cytarabine] + Nc1ncn([C@H]2C[C@H](O)[C@@H](CO)O2)c(=O)n1 [Decitabine] (partner 2 µM)")
0.824
>>> obs_value("Nc1ccn([C@@H]2O[C@H](CO)[C@@H](O)[C@@H]2O)c(=O)n1 [Cytarabine] + CC(C)C[C@H](NC(=O)[C@H](Cc1ccccc1)NC(=O)c1cnccn1)B(O)O [Bortezomib] (partner 0.002 µM)")
0.811

Reference for the values: the supplement of paper PMC10307832
